These measurements were taken from patent US20220235065A1.

Reported values of IC50 for individual entries
Molecular target: recombinant purified human EHMT2 913-1193 (Homo sapiens, UniProt Q96KQ7)
Construct: Recombinant purified human EHMT2 913-1193 (55 μM) synthesized by Viva was used for all experiments; purchased Viva
Sequence (Q96KQ7 913-1193): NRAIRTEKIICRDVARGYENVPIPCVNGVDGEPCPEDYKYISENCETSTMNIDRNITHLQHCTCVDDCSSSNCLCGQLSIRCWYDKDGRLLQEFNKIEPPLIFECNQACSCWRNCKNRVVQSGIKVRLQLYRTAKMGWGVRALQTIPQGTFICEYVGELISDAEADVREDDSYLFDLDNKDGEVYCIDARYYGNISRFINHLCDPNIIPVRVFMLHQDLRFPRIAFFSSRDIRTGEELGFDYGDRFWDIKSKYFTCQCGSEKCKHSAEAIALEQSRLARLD
Assay: EHMT2 enzyme assay on histone peptide substrate (3H-SAM Flashplate)
Type: biochemical
Settings: read-out: EHMT2 PEP (IC50 μM)

In the examples that follow, each entry is paired with its recorded IC50.
[ask] Bench note: what IC50 did CNCc1cc(-c2cc(Nc3nc(C)cc(NC)n3)ccc2OC)on1 show?
[reply] 0.1 to 1 µM

[ask] Please answer likewise for CNc1cc(C)nc(Nc2ccc(Cl)c(C(=O)Nc3cnccn3)c2)n1
[reply] 1 to 10 µM

[ask] Please answer likewise for CNc1cc(C)nc(Nc2ccc(OC)c(-n3ncc4cnccc43)c2)n1
[reply] 1 to 10 µM

[ask] Please answer likewise for CNCc1cnn(-c2c(F)ccc(Nc3nc(C)cc(NC)n3)c2F)c1
[reply] < 0.1 µM

Further cases:
[ask] Bench note: what IC50 did CNc1cc(C)nc(Nc2ccc(C)c(-c3cc4ccncc4[nH]3)c2)n1 show?
[reply] < 0.1 µM

---

Target: EHMT1 (Homo sapiens, UniProt Q9H9B1)
Sequence (Q9H9B1 1-1298): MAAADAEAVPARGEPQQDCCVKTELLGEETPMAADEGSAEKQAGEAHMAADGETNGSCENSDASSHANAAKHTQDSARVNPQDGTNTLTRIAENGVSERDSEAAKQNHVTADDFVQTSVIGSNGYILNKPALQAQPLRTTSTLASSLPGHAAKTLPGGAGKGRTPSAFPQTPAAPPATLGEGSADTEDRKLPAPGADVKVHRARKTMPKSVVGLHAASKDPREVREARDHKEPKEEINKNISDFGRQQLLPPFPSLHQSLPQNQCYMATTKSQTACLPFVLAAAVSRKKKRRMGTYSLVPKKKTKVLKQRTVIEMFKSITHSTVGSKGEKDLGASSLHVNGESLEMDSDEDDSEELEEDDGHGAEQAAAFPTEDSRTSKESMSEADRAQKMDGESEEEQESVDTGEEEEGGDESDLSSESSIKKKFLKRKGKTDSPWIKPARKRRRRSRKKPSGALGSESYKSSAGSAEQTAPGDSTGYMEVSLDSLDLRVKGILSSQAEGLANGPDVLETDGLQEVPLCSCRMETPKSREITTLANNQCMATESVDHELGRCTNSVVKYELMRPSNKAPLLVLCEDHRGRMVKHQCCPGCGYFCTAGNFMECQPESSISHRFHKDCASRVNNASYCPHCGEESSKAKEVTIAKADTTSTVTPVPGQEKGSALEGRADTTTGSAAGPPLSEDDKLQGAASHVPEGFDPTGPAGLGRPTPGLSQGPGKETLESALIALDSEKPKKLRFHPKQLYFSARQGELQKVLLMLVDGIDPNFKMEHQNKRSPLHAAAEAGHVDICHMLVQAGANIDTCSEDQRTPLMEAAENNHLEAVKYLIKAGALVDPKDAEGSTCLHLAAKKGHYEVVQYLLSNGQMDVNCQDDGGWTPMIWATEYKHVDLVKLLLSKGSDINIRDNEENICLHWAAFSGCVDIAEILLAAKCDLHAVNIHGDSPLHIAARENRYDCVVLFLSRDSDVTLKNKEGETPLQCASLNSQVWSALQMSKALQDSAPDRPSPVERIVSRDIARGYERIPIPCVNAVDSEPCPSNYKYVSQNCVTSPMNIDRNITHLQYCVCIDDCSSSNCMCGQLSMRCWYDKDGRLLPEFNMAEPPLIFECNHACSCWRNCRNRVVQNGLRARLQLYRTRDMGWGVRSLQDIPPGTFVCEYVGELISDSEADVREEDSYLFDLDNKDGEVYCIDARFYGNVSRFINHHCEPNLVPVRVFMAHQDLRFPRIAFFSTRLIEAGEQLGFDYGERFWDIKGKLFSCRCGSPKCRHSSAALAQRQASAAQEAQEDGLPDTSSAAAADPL
Test: EHMT1 PEP (EHMT1 peptide enzyme assay)
Type: biochemical
Settings: peptide substrate enzyme assay
Reported values of IC50 for individual entries

In the examples that follow, each entry is paired with its recorded IC50.
[ask] Bench note: what IC50 did CNc1cc(C)nc(Nc2ccc(OC)c(-n3ncc4c3CCN(C)C4)c2)n1 show?
[reply] 0.1 to 1 µM

[ask] Please answer likewise for CNCc1cnn(-c2c(Cl)ccc(Nc3nc(C)cc(NC)n3)c2F)c1
[reply] < 0.1 µM

[ask] Please answer likewise for CNCc1cn(-c2cc(Nc3nc(C)cc(NC)n3)ccc2OC)nn1
[reply] < 0.1 µM

[ask] Please answer likewise for CNc1cc(C)nc(Nc2ccc(OC)c(-n3cc(C(C)NC)nn3)c2)n1 (stereo not drawn)
[reply] 0.1 to 1 µM

[ask] Please answer likewise for CNC1=Nc2cc(-c3cc4[nH]ccc4cn3)c(OC)cc2C12CCC2
[reply] < 0.1 µM

[ask] Please answer likewise for CNc1cc(C2CCOCC2)c2cc(OC)c(-n3cc(C4CCCN4)nn3)cc2n1 (stereo not drawn)
[reply] 0.1 to 1 µM

[ask] Please answer likewise for CNc1cc(C)nc(Nc2ccc(OC)c(-c3cc4[nH]cc(C)c4cn3)c2)n1
[reply] < 0.1 µM

[ask] Please answer likewise for CNc1cc(C2CCOCC2)c2cc(OC)c(-n3cc(CN(C)C)nn3)cc2n1
[reply] 1 to 10 µM

Okay, now this compound:
[ask] Bench note: what IC50 did CNc1cc(C)nc(Nc2ccc(Cl)c(C(=O)Nc3cccnc3)c2)n1 show?
[reply] 1 to 10 µM
